# measured-target: T1, ClpS-ClpA6 complex (E. coli, UniProt P0ABH9 1-758; P0A8Q6 1-106)
# T1 sequence (looked up) 1: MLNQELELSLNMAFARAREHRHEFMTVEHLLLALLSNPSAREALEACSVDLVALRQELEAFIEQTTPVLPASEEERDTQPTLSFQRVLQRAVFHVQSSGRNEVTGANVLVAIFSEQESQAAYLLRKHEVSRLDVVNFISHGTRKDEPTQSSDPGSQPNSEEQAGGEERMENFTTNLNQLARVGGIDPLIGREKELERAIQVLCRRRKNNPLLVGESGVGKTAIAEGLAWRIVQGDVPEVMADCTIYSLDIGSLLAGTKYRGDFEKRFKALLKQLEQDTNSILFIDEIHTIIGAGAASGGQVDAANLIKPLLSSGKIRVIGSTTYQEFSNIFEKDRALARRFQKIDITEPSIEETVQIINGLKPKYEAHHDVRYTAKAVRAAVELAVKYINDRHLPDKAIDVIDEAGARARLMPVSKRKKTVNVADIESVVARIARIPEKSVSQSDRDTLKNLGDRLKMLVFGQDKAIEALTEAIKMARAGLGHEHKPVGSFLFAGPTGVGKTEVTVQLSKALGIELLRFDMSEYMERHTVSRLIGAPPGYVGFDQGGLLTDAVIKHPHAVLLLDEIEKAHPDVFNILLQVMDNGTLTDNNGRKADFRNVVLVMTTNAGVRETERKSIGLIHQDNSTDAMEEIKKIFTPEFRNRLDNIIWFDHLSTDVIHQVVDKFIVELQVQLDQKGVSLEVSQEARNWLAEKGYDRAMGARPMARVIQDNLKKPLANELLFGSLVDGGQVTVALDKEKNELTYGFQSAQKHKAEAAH
# T1 sequence (looked up) 2: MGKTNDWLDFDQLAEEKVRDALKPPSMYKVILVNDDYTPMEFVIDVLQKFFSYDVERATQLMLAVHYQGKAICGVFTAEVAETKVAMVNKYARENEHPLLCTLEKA
# test-description: fluorescence polarisation
No end group written: not given here.
parameter-measured: pKd
Quick note: pKd means taking -log10 of the concentration in moles per liter.

## Task Name the reported pKd value associated with the binder LLYVQRDSKEC(fluorescein maleimide) [fluorescent N-end-rule peptide LLYVQRDSKEC-fl]
## Result 7.37
